target-system: T1, DpdA F265A (Salmonella enterica subsp. enterica …, UniProt P0DW33 1-416, F265A)
T1 sequence: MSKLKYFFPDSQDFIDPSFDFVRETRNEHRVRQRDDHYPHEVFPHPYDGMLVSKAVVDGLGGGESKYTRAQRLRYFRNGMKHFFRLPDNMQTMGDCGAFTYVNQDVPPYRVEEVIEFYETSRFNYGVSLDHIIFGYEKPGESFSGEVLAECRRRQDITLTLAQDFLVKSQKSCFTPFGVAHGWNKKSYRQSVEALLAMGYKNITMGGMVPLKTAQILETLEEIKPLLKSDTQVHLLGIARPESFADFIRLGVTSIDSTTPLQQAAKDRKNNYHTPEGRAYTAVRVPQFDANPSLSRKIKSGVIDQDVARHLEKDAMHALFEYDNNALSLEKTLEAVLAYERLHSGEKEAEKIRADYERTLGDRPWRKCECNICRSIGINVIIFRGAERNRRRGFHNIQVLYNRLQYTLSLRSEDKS
assay-summary: EMSA
quantity-name: Kd

(Q) Quickly give me recorded Kd for 28 bp DNA duplex spiked with 1% 6-FAM-labeled strand (dsDNA) DNA 1: GGGGTTTTCGCCAGCTGGCGTTTTGGGG DNA 2: CCCCAAAACGCCAGCTGGCGAAAACCCC
(A) 2.3 µM
